assay.target: recombinant TASK-3 (Homo sapiens (Human))
Sequence (Q9NPC2 whole entry): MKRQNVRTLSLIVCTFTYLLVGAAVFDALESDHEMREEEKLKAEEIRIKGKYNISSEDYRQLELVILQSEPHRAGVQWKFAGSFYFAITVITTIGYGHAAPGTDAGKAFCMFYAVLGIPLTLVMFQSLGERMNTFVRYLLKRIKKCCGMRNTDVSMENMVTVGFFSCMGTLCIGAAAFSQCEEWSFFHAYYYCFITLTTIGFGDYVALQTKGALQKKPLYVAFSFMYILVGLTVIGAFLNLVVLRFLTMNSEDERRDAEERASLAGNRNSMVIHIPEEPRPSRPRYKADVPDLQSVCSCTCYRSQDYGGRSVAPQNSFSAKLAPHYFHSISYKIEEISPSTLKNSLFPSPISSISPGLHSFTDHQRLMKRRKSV
assay.comment: Inhibition of recombinant TASK-3 in stably transfected CHO cells (KCl-induced depolarization, voltage-sensitive dye, FLIPR)
Assay type: cell-based
run.parameters: depolarization induced by 40 mM potassium chloride, some mean values from multiple determinations
property.label: pIC50
The value called pIC50 is obtained by taking minus log10 of the concentration in mol/L.

Report pIC50 from recombinant TASK-3 (Homo sapiens (Human)) testing of O=C(c1ccccc1F)N1C2CCC1CN(Cc1c(-c3ccc(Cl)cc3)nc3ccccn13)CC2 (racemic) [Example 69]
7.21

Retrieve pIC50 on recombinant TASK-3 (Homo sapiens (Human)); query Cc1nonc1C(=O)N1C2CCN(Cc3c(-c4ccc(Cl)cc4)nc4ncccn34)CC1COC2 (racemic) [Example 76]
7.18

Give pIC50 for this entry on recombinant TASK-3 (Homo sapiens (Human)): COc1ccc(Cl)c(C(=O)N2CCC3CCC2CN3Cc2c(-c3ccc(C(C)C)cc3)nc3ncccn23)n1 (centres unmarked) [Example 50]
6.36

Please tell me the measured pIC50 for Nc1nonc1C(=O)N1CCC2CCC1CN2Cc1c(-c2ccc(Cl)cc2)nc2ncccn12 (centres unmarked) [Example 24] ; system: recombinant TASK-3 (Homo sapiens (Human)).
7.62

Please report the measured pIC50 for COc1cccc(C(=O)N2C3CCC2CN(Cc2c(-c4ccc(Cl)cc4)nc4ccccn24)CC3)n1 (racemic) [Example 70] tested on recombinant TASK-3 (Homo sapiens (Human)).
8.33

Please respond with reported pIC50 (system recombinant TASK-3 (Homo sapiens (Human))) for O=C(c1ccccc1F)N1CCC2CCC1CN2Cc1c(-c2ccc(Cl)cn2)nc2ncccn12 (centres unmarked) [Example 31] .
7.33

Write down the reported pIC50 (system: recombinant TASK-3 (Homo sapiens (Human))) of COc1ccc(Cl)c(C(=O)N2CCC3CCC2CN3Cc2c(-c3ccc(Cl)cn3)nc3ccccn23)n1 (centres unmarked) [Example 20]
6.71

Give recombinant TASK-3 (Homo sapiens (Human)) pIC50 for the following molecule: O=C(c1ccccc1F)N1CCC2CCC1CN2Cc1c(-c2ccc(Cl)cc2)nc2ccccn12 (centres unmarked) [Example 36]
6.00
